Cited source for all entries: ChEMBL document CHEMBL3045490

# Tested on: Blumeria graminis
# Assay method text: Antifungal activity against Blumeria graminis in wheat plant assessed as lesion area of the disease at 500 ug/ml after 10 days
# Assay type: functional
Metric: Activity

Illustrative cases are given below, each with its answer.
- Compound: "CCC1(C(=O)NCCc2ccc(Cl)s2)C(C)C1(Cl)Cl (stereo not drawn)"
  Activity: ">=80%"
- Compound: "CCC1(C(=O)OCCc2csc(Cl)c2)C(C)C1(Cl)Cl (stereo not drawn)"
  Activity: ">=80%"
- Compound: "CCC1(C(=O)NCCc2cccc(Cl)c2)C(C)C1(Cl)Cl (stereo not drawn)"
  Activity: "2.5%"
- Compound: "CCC1(C(=O)NCCc2ccc(Cl)cc2)C(C)C1(Cl)Cl (stereo not drawn)"
  Activity: ">=80%"
- Compound: "CC(C)(C)CC(=O)NCCc1csc(Cl)c1"
  Activity: "1.5%"

Quick batch: Activity for everything below.
1. CCC1(C(=O)NC(C)Cc2ccc(Cl)cc2)C(C)C1(Cl)Cl (stereo not drawn)
2. CC(NC(=O)C1(c2ccccc2)CC1(Cl)Cl)c1ccc(Cl)cc1 (stereo not drawn)
3. CCC1(C(=O)NCc2ccc(Cl)cc2)C(C)C1(Cl)Cl (stereo not drawn)
4. CC1(C)C(Cl)(Cl)C1(C)C(=O)NCCc1csc(Cl)c1 (stereo not drawn)
5. CCC1(C(=O)NCCc2ccc(C(F)(F)F)cc2)C(C)C1(Cl)Cl (stereo not drawn)
6. CCC1(C(=O)NCC(C)c2ccc(Cl)cc2)C(C)C1(Cl)Cl (stereo not drawn)
7. CC(NC(=O)C1(C2CCCC2)CC1(Cl)Cl)c1ccc(Cl)cc1 (stereo not drawn)

[">=80%", ">=80%", ">=80%", "<20%", "0.5%", ">=80%", ">=80%"]

Give Activity for the following compound: CCC1(C(=O)NCCc2ccc(Br)cc2)C(C)C1(Cl)Cl (stereo not drawn) >=80%
